# ASSAY EXPLANATION: High throughput solubility measurement in PBS
# Assay type: physicochemical
# CONDITION LABEL: Cl-free PBS, aqueous buffer, thermodynamic from solid; PBS (phosphate-buffered saline), pH 6.8, 24 hours at room temperature
ASSAY METRIC: solubility at 24 h (µM)

> print(dat)
                                item.smiles  unit.spec  endpoint.result
1  COCCCOc1cc2c(cc1OC)-c1c(F)c(=O)c(C(=O)O)cn1[C@H]1[C@@H]2CCC1(C)C         µM             1600
2  COCCCOc1cc2c(cc1OC)-c1cc(=O)c(C(=O)O)cn1[C@H]1[C@@H]2CCC1(C)C         µM             2400
3  COCCCOc1cc2c(cc1OC)-c1cc(=O)c(C(=O)O)cn1[C@H]1[C@@H]2OCC1(C)C         µM             1600

The measured values listed here are drawn from patent US10093673B2.
